# System: K-562 leukemia
# Test Name: NCI-60 one-dose screen, 48 h (100 = growth as untreated, 0 = no growth, -100 = all killed)
# Condition Description: 10 µM unless noted
Compounds without any hit were thinned out: in the full panel of roughly 83,000, 20% have a hit.
Kindly supply the reported growth values for the records listed here.
Give bare numbers, in %.

Observe how each entry below is paired with its result.
| Molecule | growth [%] |
| --- | --- |
| CC(=O)NCCN | 101 |
| CC(Br)c1nc2ccccc2cc1C(N)=O (stereo unspecified) | 90.9 |
| COc1ccc(/C=C(/C(=O)N2CCN(c3ccc(C)cc3)CC2)c2cc(OC)c(OC)c(OC)c2)cc1N | 11.2 |
| O=C(/C=C/c1cccc(O)c1)c1cccc(-n2cc(-c3ccc(Cl)cc3)[nH]c2=O)c1 | -18.4 |
| N=C(N)c1ccc(-c2ccc(-c3ccc(Cl)cc3)s2)s1 | -45.8 |

[ask] Recorded growth for COC1=CC(c2ccc[nH]2)=N/C1=C\c1[nH]c(C)c(C(=O)CCCCC(=O)NC(C)(C)C)c1C , please?
[reply] 53.5

====

Kindly supply the reported growth values for the records listed here.
# Test system: SK-MEL-5 melanoma
# Test Name: NCI-60 one-dose screen, 48 h (100 = growth as untreated, 0 = no growth, -100 = all killed)
# Condition Description: 10 µM unless noted
About 83,000 compounds went through this panel and 20% of them were active in at least one assay; those are over-represented in the sample as a whole.
One number for each entry, in %.

| Smi | growth, % |
| --- | --- |
| COc1cc(-c2nn(-c3ccc(NC(=O)Nc4ccc(Cl)c(C(F)(F)F)c4)cc3)cc2-c2ccncc2)ccc1Cl | -58.2 |

For each of the items listed, what is its growth?
1. COc1ccc(Cn2cc3c(c2-c2ccccc2)CCc2cnoc2-3)cc1N
2. Cc1cc2cn3c4ccc(O)cc4[nH]c(=O)c3c2cc1C

[reply]
1: 8.52; 2: -31.5

====

# System: HS 578T breast
# Test Name: NCI-60 one-dose screen, 48 h
# Condition Description: 10 µM unless noted
Compounds without any hit were thinned out: in the full panel of roughly 83,000, 20% have a hit. Calls of active or inactive are those of the source. How the source made its calls: active means growth percent below 10; inactive means the rest.
Just give me one of these, please: active, inactive

| Molecule | Cat |
| --- | --- |
| COc1ccc(Cn2cc3c(c2-c2ccc(OC)cc2)CCc2cnoc2-3)cc1 | active |
| O=C(NCCCl)Nc1nccnc1OCc1ccc(F)cc1 | inactive |
| O=P(OCCCl)(OCCCl)C(O)c1ccccc1Cl (stereo not given) | inactive |
| O=C(O)c1occ(Cl)c1Cl | inactive |

Consider now this further molecule.
[ask] Given CCCCCCCCCCCCCCCC[n+]1cccc(C#N)c1 , state the outcome it received in this test.
[reply] inactive

====

Kindly supply the reported growth values for the records listed here.
# Tested on: NCI/ADR-RES ovarian
# Test Name: NCI-60 one-dose screen, 48 h (100 = growth as untreated, 0 = no growth, -100 = all killed)
# Condition Description: 10 µM unless noted
The panel holds about 83,000 compounds, 20% with a hit somewhere; the sample as a whole holds those more often.
Give bare numbers, in %.

| Smi | Value Units | growth |
| --- | --- | --- |
| CC1=C(C)C(=O)C(C(C)C2=C(C)C(=O)C(C)=C(C)C2=O)=C(C)C1=O | % | 91.9 |
| Nc1cc(N)c2nc(NCCc3ccc(Cl)c(Cl)c3)cnc2c1 | % | 89.6 |
| O=C(Nc1cccc2[nH]c(C(F)(F)F)nc12)c1ccc(F)cc1 | % | 92.1 |

Turning now to a further compound:
[ask] Observed growth on NCI/ADR-RES ovarian for CCCCN(CCC)CCCCCCCCCCN1CCCc2ccccc21 , please.
[reply] 90.1
